Would you mind telling me the reported EC50 of each entry?
test system: recombinant NL4-3 virus (Renilla luciferase in nef, Gag P373S; NLRluc) in MT-2 cells; assay: whole plant or invertebrate; type: cell-based, HIV; settings: Renilla, NL43, luciferase activity in cells infected for 4-5 days with NLRluc recombinants, serial dilutions of inhibitor; class symbols (key in Table 1); read-out: EC50

Q: Consider the compound C=C(C)[C@@H]1CC[C@]2(NC(=O)[C@@H]3C[C@H](NC(=O)OCc4ccccc4)C3(C)C)CC[C@]3(C)[C@H](CC[C@@H]4[C@@]5(C)CC=C(c6ccc(C(=O)O)cc6)C(C)(C)[C@@H]5CC[C@]43C)[C@@H]12 and give its measured EC50.
A: < 100 nM

Q: Consider the compound C=C(C)[C@@H]1CC[C@]2(NC(=O)C(=O)Nc3nccs3)CC[C@]3(C)[C@H](CC[C@@H]4[C@@]5(C)CC=C(c6ccc(C(=O)O)cc6)C(C)(C)[C@@H]5CC[C@]43C)[C@@H]12 and give its measured EC50.
A: < 100 nM

FYI, the data here is from patent US20140343000A1.
